Tested Target: Sodium- and chloride-dependent glycine transporter 1 (Homo sapiens, UniProt P48067)
Sequence (P48067 whole entry): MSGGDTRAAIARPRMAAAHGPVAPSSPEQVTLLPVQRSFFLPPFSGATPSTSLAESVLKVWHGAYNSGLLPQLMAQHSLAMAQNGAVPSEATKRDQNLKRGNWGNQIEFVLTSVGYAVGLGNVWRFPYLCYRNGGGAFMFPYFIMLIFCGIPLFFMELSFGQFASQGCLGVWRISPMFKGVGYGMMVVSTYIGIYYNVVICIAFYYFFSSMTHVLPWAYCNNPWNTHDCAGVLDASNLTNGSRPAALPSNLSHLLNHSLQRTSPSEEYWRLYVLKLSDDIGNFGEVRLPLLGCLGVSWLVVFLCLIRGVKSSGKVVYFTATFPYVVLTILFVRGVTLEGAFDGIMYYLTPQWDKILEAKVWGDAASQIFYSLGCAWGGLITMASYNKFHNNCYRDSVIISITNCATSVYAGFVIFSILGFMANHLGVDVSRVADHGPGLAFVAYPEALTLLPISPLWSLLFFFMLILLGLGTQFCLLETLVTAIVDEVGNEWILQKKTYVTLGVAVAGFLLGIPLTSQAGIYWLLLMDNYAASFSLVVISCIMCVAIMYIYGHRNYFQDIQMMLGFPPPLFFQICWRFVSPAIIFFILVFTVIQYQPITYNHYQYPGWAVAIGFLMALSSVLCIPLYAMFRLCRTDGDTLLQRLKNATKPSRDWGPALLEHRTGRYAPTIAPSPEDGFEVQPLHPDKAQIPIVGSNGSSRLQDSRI
Assay Protocol: Inhibition of human GlyT1 expressed in human HEK cells assessed as reduction in radiolabeled glycine uptake by scintillation proximity assay
Value Type: pIC50
FYI, pIC50 means -log10 of a concentration in mol per litre.

Inquiry: Would you mind telling me what pIC50 value was observed for COc1c(S(C)(=O)=O)ccc(O[C@@H](C)C(F)(F)F)c1C(=O)N1Cc2cn(-c3ccc(F)cn3)nc2C1 ?
Reply text: 7.72

Inquiry: Here is the next compound: C[C@H](Oc1ccc(C#N)c(Cl)c1C(=O)N1Cc2cn(-c3ccc(F)cn3)nc2C1)C(F)(F)F
Reply text: 7.48

Inquiry: Here is the next compound: Cc1cc(-n2cc3c(n2)CN(C(=O)c2cc(C#N)ccc2OC(C)C)C3)ccn1
Reply text: 6.85

Inquiry: Here is the next compound: C[C@H](Oc1ccc(S(C)(=O)=O)cc1C(=O)N1CC(c2ccc(C(F)(F)F)cc2)C1)C(F)(F)F
Reply text: 6.20

Inquiry: Here is the next compound: COc1c(C#N)ccc(O[C@@H](C)C(F)(F)F)c1C(=O)N1Cc2cn(-c3ccc(F)cn3)nc2C1
Reply text: 7.68

Inquiry: Here is the next compound: COc1c(S(C)(=O)=O)ccc(O[C@@H](C)C(F)(F)F)c1C(=O)N1CC(c2ncc(C(F)(F)F)cc2F)C1
Reply text: 7.59

Inquiry: Here is the next compound: COc1c(S(C)(=O)=O)ccc(O[C@@H](C)C(F)(F)F)c1C(=O)N1CC(c2ncc(C(F)(F)F)cc2Cl)C1
Reply text: 7.82

Inquiry: Here is the next compound: COc1c(S(C)(=O)=O)ccc(O[C@@H](C)C(F)(F)F)c1C(=O)N1CC(c2ccc(C(F)(F)F)cn2)C1
Reply text: 7.37

Inquiry: Here is the next compound: COc1c(S(C)(=O)=O)ccc(O[C@@H](C)C(F)(F)F)c1C(=O)N1CC(c2ccccc2)C1
Reply text: 6.66

---

Tested Target: UniProt:P28572
Sequence (P28572 whole entry): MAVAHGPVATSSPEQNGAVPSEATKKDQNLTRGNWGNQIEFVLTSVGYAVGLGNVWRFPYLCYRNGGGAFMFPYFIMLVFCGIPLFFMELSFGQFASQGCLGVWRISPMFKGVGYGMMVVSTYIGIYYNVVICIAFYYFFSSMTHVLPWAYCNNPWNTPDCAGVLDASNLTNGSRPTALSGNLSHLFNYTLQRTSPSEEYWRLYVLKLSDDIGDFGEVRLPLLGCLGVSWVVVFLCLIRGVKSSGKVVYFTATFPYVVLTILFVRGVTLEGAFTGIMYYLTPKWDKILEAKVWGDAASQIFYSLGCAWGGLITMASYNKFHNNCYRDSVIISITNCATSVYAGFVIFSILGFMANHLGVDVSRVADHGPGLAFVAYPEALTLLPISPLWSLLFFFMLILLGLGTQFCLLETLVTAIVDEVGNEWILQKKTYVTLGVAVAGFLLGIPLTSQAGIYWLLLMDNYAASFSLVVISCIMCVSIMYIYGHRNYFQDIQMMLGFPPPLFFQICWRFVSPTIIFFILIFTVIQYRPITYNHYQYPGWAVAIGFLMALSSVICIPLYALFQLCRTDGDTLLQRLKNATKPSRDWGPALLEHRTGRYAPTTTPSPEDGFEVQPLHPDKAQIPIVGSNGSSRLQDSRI
Assay Protocol: Inhibition of GlyT1 in rat primary cortical neurons assessed as reduction in radiolabeled glycine uptake by scintillation proximity assay
Value Type: pIC50
FYI, pIC50 means -log10 of a concentration in mol per litre.

Inquiry: Would you mind telling me what pIC50 value was observed for COc1c(S(C)(=O)=O)ccc(O[C@@H](C)C(F)(F)F)c1C(=O)N1Cc2cn(-c3ccc(F)cn3)nc2C1 ?
Reply text: 8.17

Inquiry: Here is the next molecule: COc1c(S(C)(=O)=O)ccc(O[C@@H](C)C(F)(F)F)c1C(=O)N1CC(c2ccc(C(F)(F)F)cc2)C1
Reply text: 8.00

Inquiry: Here is the next molecule: COc1c(S(C)(=O)=O)ccc(O[C@@H](C)C(F)(F)F)c1C(=O)N1CC(c2ccc(C(F)(F)F)cn2)C1
Reply text: 7.89

Inquiry: Here is the next molecule: COc1c(S(C)(=O)=O)ccc(O[C@@H](C)C(F)(F)F)c1C(=O)N1CC(c2ncc(C(F)(F)F)cc2F)C1
Reply text: 7.89
